The reported measurements were obtained from patent US12559464B2.

target: myosin ATPase, Porcine Ventricle myofibrils (Sus scrofa, UniProt P79293); construct: Myofibrils from porcine cardiac muscle was isolated from the left ventricle of Yucatan minipigs; tissue Exemplar Genetics; host or cells: left ventricle of Yucatan minipigs, myofibrils; test: Myofibril ATPase assay, porcine ventricle myofibrils; assay type: biochemical, porcine (Yucatan minipigs); settings: concentration required to reduce myosin ATP-ase activity by 25%; Porcine Ventricle Prep pCa 25 GEOM_MEAN
Sequence (P79293 whole entry): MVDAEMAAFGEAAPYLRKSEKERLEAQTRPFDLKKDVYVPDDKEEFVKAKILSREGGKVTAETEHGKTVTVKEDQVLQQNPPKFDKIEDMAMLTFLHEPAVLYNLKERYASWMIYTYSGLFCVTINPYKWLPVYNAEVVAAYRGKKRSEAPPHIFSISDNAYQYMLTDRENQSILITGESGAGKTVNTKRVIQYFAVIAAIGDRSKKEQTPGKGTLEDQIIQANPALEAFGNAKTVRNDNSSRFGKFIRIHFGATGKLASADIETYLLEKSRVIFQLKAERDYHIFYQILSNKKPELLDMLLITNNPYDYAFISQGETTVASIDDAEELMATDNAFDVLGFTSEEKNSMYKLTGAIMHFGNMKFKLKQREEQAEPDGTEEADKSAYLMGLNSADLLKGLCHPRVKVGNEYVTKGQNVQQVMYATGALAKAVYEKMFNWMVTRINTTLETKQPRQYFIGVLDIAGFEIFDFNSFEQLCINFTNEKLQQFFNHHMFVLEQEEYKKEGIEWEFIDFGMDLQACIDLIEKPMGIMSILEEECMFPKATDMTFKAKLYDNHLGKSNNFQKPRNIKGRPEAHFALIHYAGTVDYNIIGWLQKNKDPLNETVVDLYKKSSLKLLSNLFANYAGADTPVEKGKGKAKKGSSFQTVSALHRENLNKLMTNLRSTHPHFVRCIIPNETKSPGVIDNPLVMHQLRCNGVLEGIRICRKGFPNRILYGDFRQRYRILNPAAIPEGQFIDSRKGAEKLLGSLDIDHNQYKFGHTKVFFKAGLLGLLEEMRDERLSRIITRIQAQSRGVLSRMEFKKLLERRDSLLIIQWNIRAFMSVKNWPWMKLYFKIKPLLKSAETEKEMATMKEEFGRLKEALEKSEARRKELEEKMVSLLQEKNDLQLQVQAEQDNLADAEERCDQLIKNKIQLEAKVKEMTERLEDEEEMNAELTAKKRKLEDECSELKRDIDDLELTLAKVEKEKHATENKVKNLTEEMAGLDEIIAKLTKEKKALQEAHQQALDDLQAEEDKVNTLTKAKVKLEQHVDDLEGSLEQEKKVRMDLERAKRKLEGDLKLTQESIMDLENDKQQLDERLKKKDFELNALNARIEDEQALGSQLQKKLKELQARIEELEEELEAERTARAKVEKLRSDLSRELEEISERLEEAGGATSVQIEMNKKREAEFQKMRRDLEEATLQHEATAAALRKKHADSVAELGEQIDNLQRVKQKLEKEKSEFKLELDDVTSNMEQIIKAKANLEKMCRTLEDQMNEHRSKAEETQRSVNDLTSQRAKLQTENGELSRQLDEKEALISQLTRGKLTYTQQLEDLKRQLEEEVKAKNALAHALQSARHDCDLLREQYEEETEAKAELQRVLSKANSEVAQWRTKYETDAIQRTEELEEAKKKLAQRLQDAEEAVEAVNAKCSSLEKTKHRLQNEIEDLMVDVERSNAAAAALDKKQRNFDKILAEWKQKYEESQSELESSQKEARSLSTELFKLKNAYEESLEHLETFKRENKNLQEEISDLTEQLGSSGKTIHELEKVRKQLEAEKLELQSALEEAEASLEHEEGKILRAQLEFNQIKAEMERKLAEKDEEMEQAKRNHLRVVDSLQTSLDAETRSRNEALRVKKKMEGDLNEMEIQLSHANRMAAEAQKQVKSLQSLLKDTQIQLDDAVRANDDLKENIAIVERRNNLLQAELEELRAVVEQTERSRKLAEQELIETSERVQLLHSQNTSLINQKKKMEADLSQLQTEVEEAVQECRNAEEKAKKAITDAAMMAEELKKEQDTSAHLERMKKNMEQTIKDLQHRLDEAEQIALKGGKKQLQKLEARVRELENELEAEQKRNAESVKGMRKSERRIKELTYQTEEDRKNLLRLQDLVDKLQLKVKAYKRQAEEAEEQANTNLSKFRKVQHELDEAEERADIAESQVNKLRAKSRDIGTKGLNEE
measurement.kind: Porcine Ventricle EC25 (Y75 value) (µM)

Cc1nn(C)cc1C(C)NC(=O)Cn1c(=O)[nH]c2ccccc2c1=O (stereo not shown): 100

[a] CC(C)[C@H](NC(=O)Cn1c(=O)[nH]c2ccccc2c1=O)c1ccc(F)cc1F (single isomer, unassigned)
[b] C[C@H](NC(=O)Cn1c(=O)[nH]c2ccc(F)c(C#N)c2c1=O)c1ncc(C#N)cc1F (single isomer, unassigned)
Larger number for Porcine Ventricle EC25 (Y75 value): a , or b ? Write down the label attached to your selection. a
(a: 100 µM, b: 0.24 µM)

[A] CC(NC(=O)Cn1c(=O)[nH]c2ccccc2c1=O)c1cccs1 (stereo not shown)
[B] C[C@H](NC(=O)[C@H](CC1CC1)n1c(=O)[nH]c2ccccc2c1=O)c1ccc(F)cc1F (single isomer, unassigned)
// pick min by Porcine Ventricle EC25 (Y75 value): A , B Write down the label attached to your selection. B
(B: 50.21 µM, A: 100 µM)

====

test system: myosin ATPase, Rabbit Psoas myofibrils; test: Myofibril ATPase assay, rabbit psoas (skeletal) myofibrils; type: biochemical; settings: concentration required to reduce myosin ATP-ase activity by 25%; Rabbit Psoas Prep pCa 25 GEOM_MEAN
measurement.kind: Rabbit Psoas EC25 (Y75 value) (µM)

Some molecules with known Rabbit Psoas EC25 (Y75 value) results, for comparison:
CC(NC(=O)Cn1c(=O)[nH]c2ccccc2c1=O)c1cc(F)ccc1N(C)C (stereo not drawn): 100
C[C@H](NC(=O)[C@@H](C)n1c(=O)[nH]c2ccccc2c1=O)c1ccc(F)cc1F (single isomer, unassigned): 1.521
Cc1nn(C)cc1C(C)NC(=O)Cn1c(=O)[nH]c2ccccc2c1=O (stereo not drawn): 100
O=C(Cn1c(=O)[nH]c2ccncc2c1=O)N[C@H]1CCc2cc(F)cc(F)c21 (single isomer, unassigned): 1.145
C[C@H](NC(=O)Cn1c(=O)[nH]c2ccccc2c1=O)c1ccncc1F (single isomer, unassigned): 100
Cc1cc(F)ccc1[C@H](C)NC(=O)Cn1c(=O)[nH]c2ccccc2c1=O (single isomer, unassigned): 0.36

[I] CC(NC(=O)Cn1c(=O)[nH]c2ccccc2c1=O)c1nccs1 (stereo not drawn)
[II] C[C@H](NC(=O)[C@@H](C)n1c(=O)[nH]c2ccc(F)c(F)c2c1=O)c1ccc(F)cc1F
[III] Cc1c(F)ccc2[nH]c(=O)n(CC(=O)N[C@@H]3COc4cc(C#N)cnc43)c(=O)c12 (single isomer, unassigned)
Rank order required: Rabbit Psoas EC25 (Y75 value), descending. Labels, requested order. I, II, III

====

molecular target: myosin ATPase, Porcine Ventricle myofibrils (Sus scrofa); construct: Myofibrils from porcine cardiac muscle was isolated from the left ventricle of Yucatan minipigs; tissue Exemplar Genetics; host or cells: left ventricle of Yucatan minipigs, myofibrils; test: Myofibril ATPase assay, porcine ventricle myofibrils; format: biochemical, porcine (Yucatan minipigs); details: concentration required to reduce myosin ATP-ase activity by 25%; Porcine Ventricle Prep pCa 25 GEOM_MEAN
measurement.kind: Porcine Ventricle EC25 (Y75 value) (µM)

Some compounds with known Porcine Ventricle EC25 (Y75 value) results, for comparison:
O=C(Cn1c(=O)[nH]c2ccccc2c1=O)N[C@@H]1CCCc2cc(F)cc(F)c21 (single isomer, unassigned) [Compound 57]: 25.71
C[C@@H](NC(=O)Cn1c(=O)[nH]c2ccccc2c1=O)c1ccccc1 (single isomer, unassigned) [Compound 533]: 100
Cc1c(F)ccc2[nH]c(=O)n(CC(=O)N[C@H]3COc4cc(C#N)cnc43)c(=O)c12 (single isomer, unassigned) [Compound 702]: 7.299
CC(NC(=O)Cn1c(=O)[nH]c2ccccc2c1=O)c1ccc(F)cc1F (stereo not shown) [Compound 169]: 31.6
C[C@@H](NC(=O)Cn1c(=O)[nH]c2ccc(F)c(C#N)c2c1=O)c1ncc(C#N)cc1F (single isomer, unassigned) [Compound 3001]: 100.00

[P] CC(c1ccc(F)cc1F)N(C)C(=O)Cn1c(=O)[nH]c2ccccc2c1=O (stereo not shown) [Compound 521]
[Q] C[C@H](NC(=O)[C@@H](Cc1ccccc1)n1c(=O)[nH]c2cccc(O)c2c1=O)c1ccc(F)cc1F [Compound 34]
[R] C[C@H](NC(=O)Cn1c(=O)[nH]c2ccc(F)c(F)c2c1=O)c1ccc(C#N)nn1 (single isomer, unassigned) [Compound 4]
[S] Cc1c(F)ccc2[nH]c(=O)n(CC(=O)N[C@@H]3COc4cc(C#N)cnc43)c(=O)c12 (single isomer, unassigned) [Compound 701]
Endpoint returns the given compounds ordered by ascending Porcine Ventricle EC25 (Y75 value). Labels, requested order. S, R, Q, P
